Cited source for all entries: the supplement of paper PMC8975748

Consider the following compounds and their measured z-score of prototroph abundance readings.
System: Saccharomyces cerevisiae BY4741 SeMeCo community
assay_info: z-score of prototroph abundance vs DMSO median; higher = larger share of this subpopulation than in DMSO controls
reported_conditions: 10 µM; 24 h; SM minimal medium; subpopulation (auxotrophy): Prototroph
Where a name gives a salt, the structure may show the parent alone.
measure_name: z-score of prototroph abundance

{"columns": ["compound", "study_target", "reported_measurement"],
 "data": [
  ["CCC[C@@H]1C[C@@H](C(=O)N[C@@H]([C@H]2O[C@H](SC)[C@H](OP(=O)(O)O)[C@@H](O)[C@H]2O)[C@H](C)Cl)N(C)C1 [Clindamycin Phosphate]", "Saccharomyces cerevisiae BY4741 SeMeCo community", -0.33],
  ["COc1cc(NS(=O)(=O)c2ccc(N)cc2)nc(OC)n1 [SulfadiMethoxine sodium]", "Saccharomyces cerevisiae BY4741 SeMeCo community", 0.53],
  ["Cc1cc(-c2ccc(/N=N/c3ccc4c(S(=O)(=O)O)cc(S(=O)(=O)O)c(N)c4c3O)c(C)c2)ccc1/N=N/c1ccc2c(S(=O)(=O)O)cc(S(=O)(=O)O)c(N)c2c1O [Evans Blue]", "Saccharomyces cerevisiae BY4741 SeMeCo community", -9.18],
  ["CN(C)c1ccc(O)c2c1C[C@H]1C[C@H]3[C@H](N(C)C)C(=O)C(C(N)=O)=C(O)[C@@]3(O)C(=O)C1=C2O [Minocycline HCl]", "Saccharomyces cerevisiae BY4741 SeMeCo community", -0.28],
  ["O=[N+]([O-])c1ccc(O)c2ncccc12 [Nitroxoline]", "Saccharomyces cerevisiae BY4741 SeMeCo community", -16.6],
  ["CCC[C@@H]1C[C@@H](C(=O)N[C@@H]([C@H]2O[C@H](SC)[C@H](O)[C@@H](O)[C@H]2O)[C@@H](C)O)N(C)C1 [Lincomycin Hydrochloride Monohydrate]", "Saccharomyces cerevisiae BY4741 SeMeCo community", -0.67]
]}
